Source listed as paper PMC10888192.

tested on: HaCaT cells (human immortal keratinocytes); assay: MTT cytotoxicity assay, HaCaT; type: cell-based; conditions: 72 h incubation, mean ± SD
measure: pIC50
Formally, pIC50 is defined as -log10 of the concentration c, with c in mol/L.

Query: Give pIC50 for the following molecule: `COc1cc(OC)c2c(C)c(C(C)=O)oc2c1`
Reply: 4.17

Query: Give pIC50 for the following molecule: `CCOc1cccc2oc(C(C)=O)c(CBr)c12`
Reply: 4.63

====

tested on: HaCaT cells (human immortal keratinocytes); assay: MTT cytotoxicity assay, HaCaT; assay type: cell-based; conditions: 72 h incubation, mean ± SD
This listing pairs molecules with measured pIC50.
Formally, pIC50 is defined as -log10 of the concentration c, with c in mol/L.

smiles-representation	pIC50
COc1cc(OC)c2c(CBr)c(C(C)=O)oc2c1	4.91
CCOc1ccc2c(CBr)c(C(C)=O)oc2c1	4.64
COc1ccc2oc(C(C)=O)c(CBr)c2c1	4.82
CCOc1ccc2c(C)c(C(C)=O)oc2c1	4.26

Query: Give pIC50 for the following molecule: `COc1cc2oc(C(C)=O)c(CBr)c2c(OC)c1Br`
Reply: 5.24
